# reported IC50; entries follow
- targetDesc: UniProt O15379
- Sequence (O15379 whole entry): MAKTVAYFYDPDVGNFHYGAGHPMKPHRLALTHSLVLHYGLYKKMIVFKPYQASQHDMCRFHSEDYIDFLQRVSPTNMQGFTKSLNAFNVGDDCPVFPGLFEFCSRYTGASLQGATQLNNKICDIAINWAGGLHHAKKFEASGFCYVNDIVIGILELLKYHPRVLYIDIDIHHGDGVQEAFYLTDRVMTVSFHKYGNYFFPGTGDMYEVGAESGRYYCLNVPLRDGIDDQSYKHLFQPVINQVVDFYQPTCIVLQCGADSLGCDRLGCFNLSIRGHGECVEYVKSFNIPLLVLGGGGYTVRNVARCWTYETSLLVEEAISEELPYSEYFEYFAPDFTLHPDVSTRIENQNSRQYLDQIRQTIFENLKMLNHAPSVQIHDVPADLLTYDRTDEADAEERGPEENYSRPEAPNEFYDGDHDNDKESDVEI
Square brackets hold non-standard residues; d marks the D form. Peptide text beside a SMILES is read from it. * marks the point of attachment. Asu = N[C@@H](CCCCCC(=O)O)C(=O)O; pGlu = O=C1CC[C@@H](C(=O)O)N1; NHPh = c1ccc(N*)cc1; NHOH = ON*

[
  {
    "compound": "O=C(CCCCC[C@H](NC(=O)[C@@H]1CCC(=O)N1)C(=O)Nc1ccccc1)NO ([pGlu]-[Asu](NHOH)-NHPh)",
    "IC50": "62 nM"
  }
]

Note: attention shifts to another entry.
### Prompt Give IC50 for O=C1CC[C@H](C(=O)N[C@@H](CCCCCS)C(=O)Nc2ccccc2)N1 tested on UniProt O15379.
### Response 5 nM

----------
- targetDesc: Histone deacetylase 1 (Homo sapiens)
- Sequence (Q13547 whole entry): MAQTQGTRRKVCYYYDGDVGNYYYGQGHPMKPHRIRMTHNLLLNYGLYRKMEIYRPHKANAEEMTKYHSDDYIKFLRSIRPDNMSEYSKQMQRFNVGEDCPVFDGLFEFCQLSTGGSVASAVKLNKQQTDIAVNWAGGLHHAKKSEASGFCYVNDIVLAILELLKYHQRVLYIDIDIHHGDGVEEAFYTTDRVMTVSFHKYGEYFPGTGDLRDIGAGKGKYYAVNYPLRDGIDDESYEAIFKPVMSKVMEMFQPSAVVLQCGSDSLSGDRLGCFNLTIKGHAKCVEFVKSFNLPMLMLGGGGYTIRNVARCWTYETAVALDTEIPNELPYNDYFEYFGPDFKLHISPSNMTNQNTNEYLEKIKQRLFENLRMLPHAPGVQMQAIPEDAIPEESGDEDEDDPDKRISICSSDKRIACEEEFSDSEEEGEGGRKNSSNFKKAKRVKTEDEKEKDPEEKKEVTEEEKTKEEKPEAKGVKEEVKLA
Square brackets hold non-standard residues; d marks the D form. Peptide text beside a SMILES is read from it. * marks the point of attachment. Asu = N[C@@H](CCCCCC(=O)O)C(=O)O; pGlu = O=C1CC[C@@H](C(=O)O)N1; NHPh = c1ccc(N*)cc1; NHOH = ON*
measurementType: pIC50
Bear in mind: pIC50 is minus log10 of a mol/L concentration; give just that figure.

### Prompt Give pIC50 for O=C(CCCCC[C@H](NC(=O)[C@@H]1CCC(=O)N1)C(=O)Nc1ccccc1)NO ([pGlu]-[Asu](NHOH)-NHPh) tested on Histone deacetylase 1 (Homo sapiens).
### Response 7.47

----------
# reported IC50; entries follow
- targetDesc: Histone deacetylase 2 (Homo sapiens)
- Sequence (Q92769 whole entry): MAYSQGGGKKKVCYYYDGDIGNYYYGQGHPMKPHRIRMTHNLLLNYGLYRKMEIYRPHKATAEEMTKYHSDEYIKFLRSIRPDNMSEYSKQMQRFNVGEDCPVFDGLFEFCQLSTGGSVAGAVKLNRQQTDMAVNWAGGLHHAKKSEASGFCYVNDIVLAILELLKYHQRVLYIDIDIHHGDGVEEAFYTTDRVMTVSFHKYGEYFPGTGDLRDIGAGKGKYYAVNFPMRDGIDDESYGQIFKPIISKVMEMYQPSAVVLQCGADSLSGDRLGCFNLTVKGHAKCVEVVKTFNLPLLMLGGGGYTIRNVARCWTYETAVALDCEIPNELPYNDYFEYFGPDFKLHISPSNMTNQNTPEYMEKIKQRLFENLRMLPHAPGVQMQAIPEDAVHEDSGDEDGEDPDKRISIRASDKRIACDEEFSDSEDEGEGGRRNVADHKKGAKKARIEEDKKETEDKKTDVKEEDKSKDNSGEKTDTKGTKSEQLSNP
Square brackets hold non-standard residues; d marks the D form. Peptide text beside a SMILES is read from it. * marks the point of attachment. Asu = N[C@@H](CCCCCC(=O)O)C(=O)O; pGlu = O=C1CC[C@@H](C(=O)O)N1; NHPh = c1ccc(N*)cc1; NHOH = ON*
Report the figure in nM without appending any unit label.

Example results:
[
  {
    "compound": "O=C(CCCCC[C@H](NC(=O)[C@@H]1CC(=O)N1)C(=O)Nc1ccccc1)NO",
    "IC50 [nM]": 143
  },
  {
    "compound": "O=C1CC[C@H](C(=O)N[C@@H](CCCCCS)C(=O)Nc2ccccc2)N1",
    "IC50 [nM]": 78
  }
]

Note: attention shifts to another entry.
### Prompt Give IC50 for O=C(CCCCC[C@H](NC(=O)[C@@H]1CCC(=O)N1)C(=O)Nc1ccccc1)NO ([pGlu]-[Asu](NHOH)-NHPh) tested on Histone deacetylase 2 (Homo sapiens).
### Response 89

----------
- System: NCI-H460
- testDetails: Cytotoxicity against human NCI-H460 cells
- Type: functional, cell-based
Square brackets hold non-standard residues; d marks the D form. Peptide text beside a SMILES is read from it. * marks the point of attachment. Asu = N[C@@H](CCCCCC(=O)O)C(=O)O; pGlu = O=C1CC[C@@H](C(=O)O)N1; NHPh = c1ccc(N*)cc1; NHOH = ON*
# reported IC50; entries follow
Report the figure in nM without appending any unit label.

### Prompt Give IC50 for O=C(CCCCC[C@H](NC(=O)[C@@H]1CCC(=O)N1)C(=O)Nc1ccccc1)NO ([pGlu]-[Asu](NHOH)-NHPh) tested on NCI-H460.
### Response 2200

### Prompt Give IC50 for CC(=O)SCCCCC[C@H](NC(=O)[C@H]1CCC(=O)N1)C(=O)Nc1ccccc1 tested on NCI-H460.
### Response 66

### Prompt Give IC50 for O=C(CCCCC[C@H](NC(=O)[C@@H]1CC(=O)N1)C(=O)Nc1ccccc1)NO tested on NCI-H460.
### Response 5400

----------
- Tested on: Plasmodium falciparum
- testDetails: Antiprotozoan activity against Plasmodium falciparum NF54 IEF forms
- Type: functional, organism-based
Square brackets hold non-standard residues; d marks the D form. Peptide text beside a SMILES is read from it. * marks the point of attachment. Asu = N[C@@H](CCCCCC(=O)O)C(=O)O; pGlu = O=C1CC[C@@H](C(=O)O)N1; NHPh = c1ccc(N*)cc1; NHOH = ON*
# reported pIC50; entries follow
Bear in mind: pIC50 is minus log10 of a mol/L concentration; give just that figure.

Example results:
[
  {
    "compound": "CC(=O)SCCCCC[C@H](NC(=O)[C@H]1CCC(=O)N1)C(=O)Nc1ccccc1",
    "pIC50": 5.18
  },
  {
    "compound": "CC(=O)SCCCCC[C@H](NC(=O)[C@H]1CCC(=O)N1)C(=O)Nc1cccc(C(F)(F)F)c1",
    "pIC50": 5.49
  },
  {
    "compound": "O=C(CCCCC[C@H](NC(=O)[C@@H]1CCC(=O)N1)C(=O)Nc1ccccc1)NO ([pGlu]-[Asu](NHOH)-NHPh)",
    "pIC50": 7.72
  },
  {
    "compound": "O=C1CC[C@H](C(=O)N[C@@H](CCCCCS)C(=O)Nc2cccc(C(F)(F)F)c2)N1",
    "pIC50": 5.49
  }
]

Note: attention shifts to another entry.
### Prompt Determine from records and report pIC50 for O=C(CCCCCCC(=O)Nc1ccccc1)NO
### Response 7.60

----------
- Tested on: Plasmodium falciparum
- testDetails: Antiprotozoan activity against Plasmodium falciparum NF54 IEF forms
- Type: functional, organism-based
# reported IC50; entries follow
Report the figure in nM without appending any unit label.

[
  {
    "querySmiles": "O=C(CCCCC[C@H](NC(=O)[C@H]1CCC(=O)N1)C(=O)Nc1cccc(C(F)(F)F)c1)NO",
    "measurementType": "IC50",
    "observedMeasurement": 3
  },
  {
    "querySmiles": "O=C(CCCCC[C@H](NC(=O)[C@@H]1CC(=O)N1)C(=O)Nc1ccccc1)NO",
    "measurementType": "IC50",
    "observedMeasurement": 23
  },
  {
    "querySmiles": "Cc1cccc(NC(=O)[C@H](CCCCCC(=O)NO)NC(=O)[C@H]2CCC(=O)N2)c1",
    "measurementType": "IC50",
    "observedMeasurement": 6
  }
]

Note: attention shifts to another entry.
### Prompt Determine from records and report IC50 for O=C1CC[C@H](C(=O)N[C@@H](CCCCCS)C(=O)Nc2ccccc2)N1
### Response 9660

----------
Entries below carry reported pIC50 on Histone deacetylase 8 (Homo sapiens).
Sequence (Q9BY41 whole entry): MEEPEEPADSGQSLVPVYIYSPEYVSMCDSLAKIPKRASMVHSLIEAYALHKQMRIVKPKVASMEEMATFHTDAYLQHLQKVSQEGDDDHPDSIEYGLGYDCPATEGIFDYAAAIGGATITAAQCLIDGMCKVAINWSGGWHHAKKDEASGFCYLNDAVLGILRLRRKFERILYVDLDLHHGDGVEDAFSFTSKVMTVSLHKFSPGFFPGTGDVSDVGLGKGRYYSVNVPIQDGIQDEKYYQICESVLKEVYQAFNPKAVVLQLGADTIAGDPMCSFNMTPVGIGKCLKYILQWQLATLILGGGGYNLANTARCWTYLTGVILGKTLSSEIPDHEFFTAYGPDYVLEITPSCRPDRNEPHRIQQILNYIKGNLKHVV
Square brackets hold non-standard residues; d marks the D form. Peptide text beside a SMILES is read from it. * marks the point of attachment. Asu = N[C@@H](CCCCCC(=O)O)C(=O)O; pGlu = O=C1CC[C@@H](C(=O)O)N1; NHPh = c1ccc(N*)cc1; NHOH = ON*
Bear in mind: pIC50 is minus log10 of a mol/L concentration; give just that figure.

[
  {
    "compound": "O=C(CCCCC[C@H](NC(=O)[C@@H]1CC(=O)N1)C(=O)Nc1ccccc1)NO",
    "observedMeasurement": 6.86
  }
]

### Prompt Determine from records and report pIC50 for O=C(CCCCC[C@H](NC(=O)[C@@H]1CCC(=O)N1)C(=O)Nc1ccccc1)NO ([pGlu]-[Asu](NHOH)-NHPh)
### Response 7.03

----------
- Test system: L6
- testDetails: Cytotoxicity against rat L6 cells
- Type: ADME, cell-based
pIC50: −log10 of the molar value. Square brackets hold non-standard residues; d marks the D form. Peptide text beside a SMILES is read from it. * marks the point of attachment. Asu = N[C@@H](CCCCCC(=O)O)C(=O)O; pGlu = O=C1CC[C@@H](C(=O)O)N1; NHPh = c1ccc(N*)cc1; NHOH = ON*
Rule: T for pIC50 not less than 6, F for anything less.

### Prompt Determine whether this molecule has pIC50 no lower than 6: O=C(CCCCC[C@H](NC(=O)[C@@H]1CC(=O)N1)C(=O)Nc1ccccc1)NO
### Response F

### Prompt Determine whether this molecule has pIC50 no lower than 6: CC(=O)SCCCCC[C@H](NC(=O)[C@H]1CCC(=O)N1)C(=O)Nc1cccc(C(F)(F)F)c1
### Response T

### Prompt Determine whether this molecule has pIC50 no lower than 6: O=C(CCCCC[C@H](NC(=O)[C@@H]1CCC(=O)N1)C(=O)Nc1ccccc1)NO ([pGlu]-[Asu](NHOH)-NHPh)
### Response F

### Prompt Determine whether this molecule has pIC50 no lower than 6: CC(=O)SCCCCC[C@H](NC(=O)[C@H]1CCC(=O)N1)C(=O)Nc1ccccc1
### Response T

### Prompt Determine whether this molecule has pIC50 no lower than 6: COc1cc([C@@H]2c3cc4c(cc3[C@H](O)[C@H]3COC(=O)[C@H]23)OCO4)cc(OC)c1OC
### Response T

### Prompt Determine whether this molecule has pIC50 no lower than 6: O=C(CCCCC[C@H](NC(=O)[C@H]1CCC(=O)N1)C(=O)Nc1cccc(C(F)(F)F)c1)NO
### Response T

### Prompt Determine whether this molecule has pIC50 no lower than 6: O=C1CC[C@H](C(=O)N[C@@H](CCCCCS)C(=O)Nc2ccccc2)N1
### Response F

### Prompt Determine whether this molecule has pIC50 no lower than 6: O=C1CC[C@H](C(=O)N[C@@H](CCCCCS)C(=O)Nc2cccc(C(F)(F)F)c2)N1
### Response F
